The measured values listed here are drawn from BindingDB's records for doi:10.1021/jm00017a003.

Test: The compound was tested for inhibition of HIV-1 replication in SW480 cells using HIV tat assay
pIC50: −log10 of the molar value.
// label = Fulfilled if pIC50 is not less than 5, otherwise Not fulfilled

// query Determine whether measured pIC50 meets or exceeds 5 for C[C@]12CC[C@H]3[C@@H](CC[C@@]45O[C@@H]4C(=O)CC[C@]35C)[C@@H]1CC[C@@H]2O
// result Not fulfilled

// query Could you please find out whether C[C@]12CCCC[C@@]13O[C@H]3C(=O)C(C#N)C2 (some centres not stated) has pIC50 that meets 5 or exceeds it?
// result Not fulfilled

// query For this compound, is measured pIC50 5 or higher? CC1(C)CC(C(=O)Nc2c(Cl)cccc2Cl)C(=O)C2OC21 (configuration not stated)
// result Not fulfilled

// query Is reported pIC50 greater than or equal to 5 here: COC(=O)C1C[C@]2(C)[C@H]3CC[C@]4(C)[C@@H](O)CC[C@H]4[C@@H]3CC[C@]23O[C@@H]3C1=O (some centres not stated)
// result Fulfilled

// query Say whether C[C@]12CCCC[C@]1(O)[C@H](Cl)C(=O)C(C(N)=O)C2 (some centres not stated) shows pIC50 of 5 or more.
// result Not fulfilled

// query # check: pIC50 of COc1ccc(NC(=O)C2C[C@]3(C)CCCC[C@@]3(O)[C@@H](Cl)C2=O)cc1 (some centres not stated) is greater than or equal to 5
// result Not fulfilled

// query Please indicate if the recorded pIC50 for C[C@]12CCCC[C@@]13O[C@H]3C(=O)C(C(N)=O)C2 (some centres not stated) meets or exceeds 5.
// result Not fulfilled

// query Does the reported pIC50 for C[C@]12CC[C@H]3[C@@H](CC[C@@]45O[C@@H]4C(=O)C(C(N)=O)C[C@]35C)[C@@H]1CC[C@@H]2O (some centres not stated) fall at or above the 5 mark?
// result Not fulfilled

// query Answer whether pIC50 of CC(=O)O[C@H]1CC[C@H]2[C@@H]3CC[C@@]45O[C@@H]4C(=O)C(C(N)=O)C[C@]5(C)[C@H]3CC[C@]12C (some centres not stated) is greater than or equal to 5.
// result Fulfilled

// query Entry C[C@@]12CCCC[C@@]1(O)[C@@H](Cl)C(=O)C(C(N)=O)C2 (some centres not stated) : is its pIC50 no less than 5?
// result Not fulfilled

// query Is it the case that C[C@@]12CCCC[C@]13O[C@@H]3C(=O)C(C(=O)Nc1ccccc1)C2 (some centres not stated) has pIC50 reaching or exceeding 5?
// result Fulfilled

// query Please indicate if the recorded pIC50 for CC(=O)O[C@H]1CC[C@H]2[C@@H]3CC[C@@]45O[C@@H]4C(=O)C(C#N)C[C@]5(C)[C@H]3CC[C@]12C (some centres not stated) meets or exceeds 5.
// result Not fulfilled

// query In plain terms: is recorded pIC50 at least 5 for C[C@@]12CCCC[C@@]1(O)[C@@H](Cl)C(=O)C(C(=O)Nc1ccccc1)C2 (some centres not stated) ?
// result Fulfilled

// query Could you please find out whether CC(=O)O[C@H]1CC[C@H]2[C@@H]3CC[C@@]45O[C@@H]4C(=O)C(S(C)(=O)=O)C[C@]5(C)[C@H]3CC[C@]12C (some centres not stated) has pIC50 that meets 5 or exceeds it?
// result Fulfilled

// query Confirm if pIC50 reported for the compound C[C@@]12CCCC[C@]13O[C@@H]3C(=O)C(C#N)C2 (some centres not stated) is 5 or above.
// result Not fulfilled

// query # bool: pIC50 of COC(=O)C1C[C@]2(C)[C@H]3CC[C@]4(C)[C@@H](OC(C)=O)CC[C@H]4[C@@H]3CC[C@]23O[C@@H]3C1=O (some centres not stated) >= 5
// result Fulfilled

// query # check: pIC50 of COc1ccc(NC(=O)C2C[C@]3(C)CCCC[C@]34O[C@@H]4C2=O)cc1 (some centres not stated) is greater than or equal to 5
// result Not fulfilled

// query Quick check, pIC50 >= 5? COc1ccc(NC(=O)C2CC(C)(C)C3OC3C2=O)cc1 (configuration not stated)
// result Not fulfilled
